Please go through the items and note down their normalized growth.
# Protocol Summary: chemical genetic growth profiling, strain panel (AID 1159580);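 also: tested at 20 µM; growth read once vehicle control cultures reached saturation at 30 °C; 1 = growth at the plate median or of vehicle wells; lower values mean less growth of the strain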
# Run Parameters: S. cerevisiae deletion strains, growth OD, locus YER155C, strain BEM2, active compounds read low
Screen size: about 5,500 compounds; about 2,000 (36%) were called active. Another 18% or so got no clear call; they are omitted. The list shows a part of the results.
Respond with the number and no other words.

Give me measured normalized growth, please, for this molecule: CC(NCCC(c1ccccc1)c1ccccc1)c1ccccc1 (stereo not drawn)
0.999

Give me measured normalized growth, please, for this molecule: O=C(OC[C@H]1O[C@H](OC(=O)c2cc(O)c(O)c(OC(=O)c3cc(O)c(O)c(O)c3)c2)[C@H](OC(=O)c2cc(O)c(O)c(OC(=O)c3cc(O)c(O)c(O)c3)c2)[C@@H](OC(=O)c2cc(O)c(O)c(OC(=O)c3cc(O)c(O)c(O)c3)c2)[C@@H]1OC(=O)c1cc(O)c(O)c(OC(=O)c2cc(O)c(O)c(O)c2)c1)c1cc(O)c(O)c(OC(=O)c2cc(O)c(O)c(O)c2)c1
0.112

Give me measured normalized growth, please, for this molecule: CC(=O)N[C@@H](Cc1c[nH]c2ccccc12)C(=O)O
0.997

Give me measured normalized growth, please, for this molecule: COC1(C)CCC2OC2(C)CCC2C1CC2(C)C (stereo not drawn)
0.996

Give me measured normalized growth, please, for this molecule: CC(=O)[C@@]1(O)CCC2C3CCC4=CC(=O)CC[C@]4(C)C3CC[C@@]21C (stereo partly drawn)
1

Give me measured normalized growth, please, for this molecule: CNC(Cc1c[nH]c2ccccc12)C(=O)O (stereo not drawn)
1

Give me measured normalized growth, please, for this molecule: COc1cc(NS(=O)(=O)c2ccc(N)cc2)ncn1
1

Give me measured normalized growth, please, for this molecule: NC(N)=NC(N)=Nc1ccccc1
1
